From: ChEMBL document CHEMBL4673395

system: Muscarinic acetylcholine receptor M3 (Homo sapiens)
Sequence (P20309 whole entry): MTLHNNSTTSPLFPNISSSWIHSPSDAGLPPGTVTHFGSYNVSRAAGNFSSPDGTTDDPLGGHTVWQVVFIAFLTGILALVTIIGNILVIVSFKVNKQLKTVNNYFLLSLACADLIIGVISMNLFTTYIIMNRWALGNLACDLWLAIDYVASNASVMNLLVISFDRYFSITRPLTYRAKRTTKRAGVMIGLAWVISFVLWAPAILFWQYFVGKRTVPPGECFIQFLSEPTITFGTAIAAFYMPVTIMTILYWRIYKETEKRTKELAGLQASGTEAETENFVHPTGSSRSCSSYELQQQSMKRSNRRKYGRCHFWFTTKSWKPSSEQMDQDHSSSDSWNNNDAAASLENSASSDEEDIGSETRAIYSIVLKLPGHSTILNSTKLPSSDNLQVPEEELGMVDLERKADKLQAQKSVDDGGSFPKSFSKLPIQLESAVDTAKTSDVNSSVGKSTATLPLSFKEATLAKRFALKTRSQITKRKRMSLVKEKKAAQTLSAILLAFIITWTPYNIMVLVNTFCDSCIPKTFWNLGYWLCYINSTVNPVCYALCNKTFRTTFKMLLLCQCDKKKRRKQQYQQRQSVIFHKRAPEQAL
protocol-text: Antagonist activity at human recombinant muscarinic receptor M3 expressed in CHO-K1 cells assessed as EC80 acetylcholine-induced calcium flux incubated for 30 mins
Type: functional, cell-based
run-parameters: read-out: IC50
measure: IC50 (nM)

{"molecular-string": "N#Cc1ccc(N2C3CCC2CN(C(=O)CCS(=O)(=O)c2cccc4ncsc24)C3)nc1", "assay-result": 55}

###

Let's look at some molecules and their measured Papp A→B.
protocol-text: Apparant permeability across apical to basolateral side in dog MDCK-MDR1 cells
Type: ADME, cell-based, Canis lupus familiaris
measure: Papp A→B

{"molecular-string": "Cc1cc(F)cnc1N1CCN(C(=O)CCCc2cccc3ncccc23)[C@@H](C)C1", "measure": "Papp A→B", "assay-result": "8 ×10⁻⁶ cm/s"}
{"molecular-string": "N#Cc1ccc(N2C3CCC2CN(C(=O)CCS(=O)(=O)c2cccc4ncsc24)C3)nc1", "measure": "Papp A→B", "assay-result": "7.7 ×10⁻⁶ cm/s"}
